Source of measurements: paper PMC12223813

Test system: MDA-MB-231, human triple-negative breast cancer cell line
Assay Remarks: Antiproliferative activity, MTT assay
Format: cell-based
Assay Conditions: SI = IC50 HaCaT/IC50 MDA-MB-231

Molecule	Target Or Test System	MDA-MB-231 SI
C=C[C@H]1C[N@@]2CC[C@H]1C[C@@H]2[C@@H](O)c1ccnc2ccccc12 [cinchonine, reference compound]	MDA-MB-231, human triple-negative breast cancer cell line	>1.5
CC[C@H](C)[C@H]1O[C@]2(CC[C@@H]1C)C[C@@H]1C[C@@H](C/C=C(\C)[C@@H](OC(=O)N[C@H]3CCc4cc(OC)c(OC)c(OC)c4-c4ccc(SC)c(=O)cc43)[C@@H](C)/C=C/C=C3\CO[C@@H]4[C@H](O)C(C)=C[C@@H](C(=O)O1)[C@]34O)O2 [compound 8]	MDA-MB-231, human triple-negative breast cancer cell line	>15.2
C=C[C@H]1CN2CC[C@H]1C[C@H]2[C@H](O)c1ccnc2ccccc12 [cinchonidine, reference compound]	MDA-MB-231, human triple-negative breast cancer cell line	∼1.0
C=C(C)[C@@H]1CC[C@]2(C(=O)O)CC[C@]3(C)[C@H](CC[C@@H]4[C@@]5(C)CC[C@H](O)C(C)(C)[C@@H]5CC[C@]43C)[C@@H]12 [betulinic acid, reference compound]	MDA-MB-231, human triple-negative breast cancer cell line	>2.2
CCC(C)C1OC2(CCC1C)CC1CC(CC=C(C)C(OC(=O)Cn3cc(COC(=O)CCC(=O)OC4OC5OC6(C)CCC7C(C)CCC(C4C)C57OO6)nn3)C(C)C=CC=C3COC4C(O)C(C)=CC(C(=O)O1)C34O)O2 (centres unmarked) [compound 16, Ivermectin–Artesunate Conjugate]	MDA-MB-231, human triple-negative breast cancer cell line	>7.7
Cc1cn([C@H]2C[C@H](N=[N+]=[N-])[C@@H](CO)O2)c(=O)[nH]c1=O [azidothymidine, reference compound]	MDA-MB-231, human triple-negative breast cancer cell line	>1.9
C=C(C)C1CCC2(C(=O)OCc3cn(CC(=O)OC4C(C)=CCC5CC(CC6(CCC(C)C(C(C)CC)O6)O5)OC(=O)C5C=C(C)C(O)C6OCC(=CC=CC4C)C56O)nn3)CCC3(C)C(CCC4C5(C)CCC(O)C(C)(C)C5CCC43C)C12 (centres unmarked) [compound 15, Ivermectin–Betulinic Acid Conjugate]	MDA-MB-231, human triple-negative breast cancer cell line	∼1.0
Cc1ncc([N+](=O)[O-])n1CCO [metronidazole, reference compound]	MDA-MB-231, human triple-negative breast cancer cell line	>6.7
